Biological target: T1, cynomolgus monkey TF-His (cynomolgus monkey, UniProt A0A2K5VX02 33-253)
T1 construct: range 33-252; Recombinant extracellular segment expressed in HEK293-EBNA cells and purified on a nickel column; also called c.TF-His; c; TF-his; not shown: His tag from vector pTT5-His
T1 sequence: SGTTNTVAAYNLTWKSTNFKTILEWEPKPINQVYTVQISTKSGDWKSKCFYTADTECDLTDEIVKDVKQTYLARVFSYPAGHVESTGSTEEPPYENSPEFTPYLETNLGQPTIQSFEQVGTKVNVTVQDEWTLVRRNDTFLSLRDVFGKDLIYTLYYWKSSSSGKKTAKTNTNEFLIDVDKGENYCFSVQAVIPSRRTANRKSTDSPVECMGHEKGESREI
Test: BLI (ForteBio Octet), antibody on ProA sensor, TF-His as analyte
pKd: −log10 of the molar value.
We begin with a simple list: items and their reported pKd.

>  <binder>
27H8H3-hz1 (antibody, human IgG1, kappa, V domains shown, Humanized IgG1 kappa) VH: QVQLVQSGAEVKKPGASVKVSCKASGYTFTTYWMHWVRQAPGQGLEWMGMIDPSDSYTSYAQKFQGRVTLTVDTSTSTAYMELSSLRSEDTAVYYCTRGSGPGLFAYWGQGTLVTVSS VL: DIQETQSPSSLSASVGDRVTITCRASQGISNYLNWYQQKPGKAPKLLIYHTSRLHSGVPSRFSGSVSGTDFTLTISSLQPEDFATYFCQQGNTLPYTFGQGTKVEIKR

>  <pKd>
7.37

$$$$
>  <binder>
2B12B10-hz1 (antibody, human IgG1, kappa, V domains shown, Humanized IgG1 kappa) VH: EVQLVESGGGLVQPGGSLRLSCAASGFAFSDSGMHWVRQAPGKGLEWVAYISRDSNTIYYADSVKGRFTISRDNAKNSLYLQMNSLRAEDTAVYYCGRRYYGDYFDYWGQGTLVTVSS VL: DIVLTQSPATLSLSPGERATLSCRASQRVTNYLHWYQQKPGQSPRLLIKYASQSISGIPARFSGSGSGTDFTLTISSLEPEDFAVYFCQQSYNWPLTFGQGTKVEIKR

>  <pKd>
7.47

$$$$
>  <binder>
22F11H5-hz1 (antibody, human IgG1, kappa, V domains shown, Humanized IgG1 kappa) VH: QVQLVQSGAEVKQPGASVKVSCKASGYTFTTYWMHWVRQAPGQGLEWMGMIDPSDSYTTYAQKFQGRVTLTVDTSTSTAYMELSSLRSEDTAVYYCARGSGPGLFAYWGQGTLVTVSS VL: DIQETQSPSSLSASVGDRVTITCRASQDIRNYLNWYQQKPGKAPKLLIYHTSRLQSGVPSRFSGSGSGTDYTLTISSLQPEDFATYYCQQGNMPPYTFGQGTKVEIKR

>  <pKd>
7.90

$$$$
>  <binder>
30G11B7-hz1 (antibody, human IgG1, kappa, V domains shown, Humanized IgG1 kappa) VH: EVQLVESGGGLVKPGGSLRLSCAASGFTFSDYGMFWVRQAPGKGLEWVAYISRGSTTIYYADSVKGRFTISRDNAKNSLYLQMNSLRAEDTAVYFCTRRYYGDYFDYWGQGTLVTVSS VL: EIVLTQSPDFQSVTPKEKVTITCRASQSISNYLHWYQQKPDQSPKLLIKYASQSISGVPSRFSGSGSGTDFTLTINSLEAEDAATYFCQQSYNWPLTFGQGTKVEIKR

>  <pKd>
6.84

$$$$

Every entry's value here was drawn from patent US20250333541A1.
